System: FB
Assay: Euclidean distance of Cell Painting phenotypic profile (signed KS, 77 features) to DMSO centroid (dimensionless distance); 5 or 10 uM (library dependent); higher = stronger phenotypic change vs DMSO (phenoactivity)
Settings: 48 h
Where a name gives a salt, the structure may show the parent alone.
Entries are grouped by Euclidean distance into these classes: group 1 = under 0.9, group 2 = from 0.9 up to 1, group 3 = 1 and over

{"columns": ["Compound", "Cat"],
 "data": [
  ["Nc1nc2[nH]cc(CCc3ccc(C(=O)N[C@@H](CCC(=O)O)C(=O)O)cc3)c2c(=O)[nH]1 [Pemetrexed]", "group 1"]
]}

Problem: Hi, small favor: classify Cc1cccc(Nc2nc(-c3ccncc3)cs2)c1 by its Euclidean distance when you get a moment.
Result: group 3

Problem: For Cc1cc(C(C)(C)C)cc(C)c1CC1=NCCN1 [Xylometazoline HCl] , which Euclidean distance bin applies?
Result: group 1

====

What Euclidean distance was measured for each of the following?
Test system: DU145
Experiment: Euclidean distance of Cell Painting phenotypic profile (signed KS, 77 features) to DMSO centroid (dimensionless distance); 5 or 10 uM (library dependent); higher = stronger phenotypic change vs DMSO (phenoactivity)
Conditions: 48 h
Structures can show the parent of a compound that is named as a salt.
Numbers only.

Reference set, count: 5
{"columns": ["Molecule", "Euclidean distance"],
 "data": [
  ["CC1CC(OC(=O)C(O)c2ccccc2)CC(C)(C)C1 (stereo not drawn) [Cyclandelate]", 1.02],
  ["C[C@H]1c2cccc(O)c2C(=O)C2=C(O)[C@]3(O)C(=O)C(C(N)=O)=C(O)[C@@H](N(C)C)[C@@H]3[C@@H](O)[C@@H]21", 0.845],
  ["CCN(C(=O)c1c(O)c2c(Cl)cccc2n(C)c1=O)c1ccccc1", 0.863],
  ["CN(C)[C@@H]1C(O)=C(C(N)=O)C(=O)[C@@]2(O)C(O)=C3C(=O)c4c(O)ccc(Cl)c4[C@@H](O)[C@H]3C[C@@H]12 [Demeclocycline HCl]", 0.951],
  ["C[N+](C)(C)CC(=O)O", 0.542]
]}

List reported Euclidean distance for each of these molecules:
1. Cc1ccc(C)c(OCCCC(C)(C)C(=O)O)c1
2. CCc1oc2ccccc2c1C(=O)c1cc(Br)c(O)c(Br)c1
3. CCc1c(O)cc(O)c(C(=O)c2ccc(OCCN3CCOCC3)c(OC)c2)c1CC(=O)N(CCOC)CCOC
4. Cc1nc(NC(=O)N2CCC[C@H]2C(N)=O)sc1-c1ccnc(C(C)(C)C(F)(F)F)c1
5. CC(=O)O[C@H]1Cc2ccccc2N(C(N)=O)c2ccccc21 [Eslicarbazepine Acetate]
6. C=C1/C(=C\C=C2/CCC[C@]3(C)[C@@H]([C@H](C)CCCC(C)C)CC[C@@H]23)C[C@@H](O)C[C@@H]1O
7. Cc1ccc2c(=O)c3cccc(CC(=O)O)c3oc2c1C

Result:
1.51
0.48
2.34
1.3
0.966
6.28
1.14

Problem: Entry O=C(Nc1cccnc1)N1CCC(Cc2cccc(Oc3ccc(C(F)(F)F)cn3)c2)CC1 needs its Euclidean distance filled in; supply it.
Result: 0.774

====

Tested on: OVCAR4
Experiment: Euclidean distance of Cell Painting phenotypic profile (signed KS, 77 features) to DMSO centroid (dimensionless distance); 5 or 10 uM (library dependent); higher = stronger phenotypic change vs DMSO (phenoactivity)
Details: 48 h
Structures can show the parent of a compound that is named as a salt.
For each entry below, report its Euclidean distance value.
Answers are plain numbers.

{"columns": ["Molecule", "Euclidean distance"],
 "data": [
  ["CNC[C@H](O)[C@@H](O)[C@H](O)[C@H](O)CO [Meglumine]", 1.67],
  ["OCCN1CCN(CCCN2c3ccccc3Sc3ccc(C(F)(F)F)cc32)CC1 [Fluphenazine dihydrochloride]", 1.77],
  ["Cc1cc(O)c(C(=O)N[C@@H](C(=O)N[C@@H]2C(=O)N3C(C(=O)O)=C(CSc4nnnn4C)CS[C@H]23)c2ccc(O)cc2)cn1 [Cefpiramide sodium]", 0.977]
]}

# batch: return Euclidean distance for each of the 5 molecules below
1. NC(=O)[C@@H](CCC(F)(F)F)N(Cc1ccc(-c2ncon2)cc1F)S(=O)(=O)c1ccc(Cl)cc1
2. C#CCN(C)CCCOc1ccc(Cl)cc1Cl [Clorgyline HCl]
3. CC(C)CCN1c2nc(Nc3cc(F)c(O)c(F)c3)ncc2N(C)C(=O)C1C (stereo not drawn)
4. CCOC(=O)O[C@]1(C(=O)OCCl)CC[C@H]2[C@@H]3CCC4=CC(=O)C=C[C@]4(C)[C@H]3[C@@H](O)C[C@@]21C [Loteprednol etabonate]
5. Cc1cccc(C)c1OCC(C)N (stereo not drawn) [Mexiletine HCl]

Result:
1: 0.855; 2: 0.745; 3: 2.61; 4: 1.81; 5: 0.836

Give Euclidean distance for each of the items listed below.
1. CC1(C)O[C@@H]2C[C@H]3[C@@H]4C[C@H](F)C5=CC(=O)C=C[C@]5(C)[C@@]4(F)[C@@H](O)C[C@]3(C)[C@]2(C(=O)CO)O1 [Fluocinolone Acetonide]
2. CCN(CC)CCCC(C)Nc1c2ccc(Cl)cc2nc2ccc(OC)cc12 (stereo not drawn) [Quinacrine 2HCl]
3. CC1(C)S[C@@H]2[C@H](NC(=O)[C@H](NC(=O)N3CCNC3=O)c3ccccc3)C(=O)N2[C@H]1C(=O)O [Azlocillin sodium salt]
4. Cc1ccccc1-c1cc(N2CCN(C)CC2)ncc1N(C)C(=O)C(C)(C)c1cc(C(F)(F)F)cc(C(F)(F)F)c1 [Netupitant]

Result:
2.22
3.92
1.47
1.4

Problem: Provide measured Euclidean distance value, entry: COC(=O)CCc1ccc(OCC(O)CNC(C)C)cc1 (stereo not drawn) [Esmolol HCl]
Result: 1.12

====

Tested on: 786-O
Assay: Euclidean distance of Cell Painting phenotypic profile (signed KS, 77 features) to DMSO centroid (dimensionless distance); 5 or 10 uM (library dependent); higher = stronger phenotypic change vs DMSO (phenoactivity)
Details: 48 h
Structures can show the parent of a compound that is named as a salt.
Rule: Euclidean distance of 2 or more gives yes (1); anything lower gives no (0).

{"columns": ["Compound", "Assay System", "Cat"],
 "data": [
  ["CN1CCN(c2ccc(OC(F)(F)F)c(Nc3ncc4c(n3)-c3c(c(C(N)=O)nn3CCO)CC4)c2)CC1", "786-O", "yes (1)"],
  ["CN1CCC[C@@H]1Cc1c[nH]c2ccc(CCS(=O)(=O)c3ccccc3)cc12", "786-O", "no (0)"],
  ["CC(=O)Oc1cccc2c1C(=O)c1c(OC(C)=O)cc(C(=O)O)cc1C2=O", "786-O", "no (0)"],
  ["CN1CCC(OC(c2ccccc2)c2ccccc2)CC1 [Diphenylpyraline hydrochloride]", "786-O", "no (0)"]
]}

Problem: Reported Euclidean distance at or above 2? Nc1cc(F)ccc1NC(=O)c1ccc(CNC(=O)/C=C/c2cccnc2)cc1 [Tucidinostat (Chidamide)]
Result: yes (1)

Problem: Form field: Euclidean distance at least 2? Entry: Clc1ccc2c(c1)C(N1CCNCC1)=Nc1ccccc1O2
Result: no (0)

Problem: Is it the case that Nc1nc(O)c2ncn(CCC(CO)CO)c2n1 has Euclidean distance reaching or exceeding 2?
Result: no (0)

====

Exercise: for every item that follows, state its recorded Euclidean distance.
Test system: OVCAR4
Assay: Euclidean distance of Cell Painting phenotypic profile (signed KS, 77 features) to DMSO centroid (dimensionless distance); 5 or 10 uM (library dependent); higher = stronger phenotypic change vs DMSO (phenoactivity)
Conditions: 48 h
Answers are plain numbers.

Solved cases (4 shown):
{"columns": ["Compound", "Endpoint Value"],
 "data": [
  ["CCn1cc(C(=O)O)c(=O)c2cnc(N3CCCC3)nc21", 1.02],
  ["O=c1ccc2cc(O)c(O)cc2o1", 0.988],
  ["O=C1C(CC[S+]([O-])c2ccccc2)C(=O)N(c2ccccc2)N1c1ccccc1 (racemic) [(+/-)-Sulfinpyrazone]", 0.993],
  ["CCCC1CC(C(=O)NC(C(C)Cl)C2OC(SC)C(O)C(O)C2O)N(C)C1 (stereo not given) [Clindamycin alcoholate]", 1.02]
]}

Problem: Please indicate Euclidean distance recorded for CCn1nc(C(=O)O)c(=O)c2cc3c(cc21)OCO3
Result: 1

====

Test system: 786-O
Assay: Euclidean distance of Cell Painting phenotypic profile (signed KS, 77 features) to DMSO centroid (dimensionless distance); 5 or 10 uM (library dependent); higher = stronger phenotypic change vs DMSO (phenoactivity)
Details: 48 h
Structures can show the parent of a compound that is named as a salt.
Give measured Euclidean distance for each item. Keep answers brief.
Answers are plain numbers.

Could I get Euclidean distance for every one of these entries?
1. Cn1c(=O)c2c(ncn2CC2OCCO2)n(C)c1=O
2. COc1cc2c(cc1OC)[C@@H]1Cc3ccc(OC)c(OC)c3CN1CC2 [Rotundine]
3. COc1ccc2cc1Oc1ccc(cc1)C[C@H]1c3cc(c(OC)cc3CCN1C)Oc1c(OC)c(OC)cc3c1[C@H](C2)N(C)CC3
4. Cc1ccc2c(c1)C(=O)C1(O)CCN(c3ccccc3)C1=N2 (single isomer, unassigned; (-)) [(-)-Blebbistatin]
5. Oc1ccc(Cl)c2cccnc12
6. COc1ccccc1[C@H](Cn1c(=O)n(C(C)(C)C(=O)O)c(=O)c2c(C)c(-c3ncco3)sc21)OC1CCOCC1
7. Cc1c(C(=O)Nc2ccc(N3C[C@@H](C)O[C@@H](C)C3)nc2)cccc1-c1ccc(OC(F)(F)F)cc1
8. CC1(C)CC(=O)c2c(C(F)(F)F)nn(-c3ccc(C(N)=O)c(N[C@H]4CC[C@H](OC(=O)CN)CC4)c3)c2C1

Result:
[1.15, 1.84, 4.3, 1.29, 1.62, 0.952, 0.757, 3.85]

Look at each molecule and report its Euclidean distance.
1. CCc1ccc(N(CC(C)C)S(=O)(=O)c2ccc(OCC3CCOCC3)c(CO)c2)cc1
2. CNC(=O)c1ccc(C)c(-n2c(C)cc(OCc3ccc(F)cc3F)c(Br)c2=O)c1
3. C=C1/C(=C\C=C2/CCC[C@]3(C)[C@@H]([C@H](C)CCCC(C)(C)O)CC[C@@H]23)C[C@@H](O)C[C@@H]1O
4. COc1ccc2[nH]c([S@@+]([O-])Cc3ncc(C)c(OC)c3C)nc2c1 [Esomeprazole sodium]
5. C/C(O)=C(\C#N)C(=O)Nc1ccc(C(F)(F)F)cc1 [Teriflunomide]

Result:
1.56
1.33
1.91
0.925
0.702

For every record below, what is its Euclidean distance?
1. CC[C@H]1OC(=O)C[C@@H](O)[C@H](C)[C@@H](O[C@@H]2O[C@H](C)[C@@H](O[C@H]3C[C@@](C)(O)[C@@H](O)[C@H](C)O3)[C@H](N(C)C)[C@H]2O)[C@@H](CC=O)C[C@@H](C)C(=O)/C=C/C(C)=C/[C@@H]1CO[C@@H]1O[C@H](C)[C@@H](O)[C@@H](OC)[C@H]1OC
2. CC(C)(C(=O)O)c1ccc(C(O)CCCN2CCC(C(O)(c3ccccc3)c3ccccc3)CC2)cc1 (stereo unspecified) [Fexofenadine HCl]
3. C[n+]1c2ccccc2nc2ccccc21 [Phenazine methosulfate]

Result:
[0.535, 1.52, 5.13]
